Recorded measurements of switch fluorescence ratio, one per entry
System: ATP;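 also: ATP exposure 15 min at 22 °C before imaging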
assay.protocol: switch fluorescence ratio, 500 uM ATP over buffer (Cy3 cluster intensity, sum of 5 cycles each) (fold (ratio)); higher = stronger signal-on switching upon ATP binding; sequences stand for … in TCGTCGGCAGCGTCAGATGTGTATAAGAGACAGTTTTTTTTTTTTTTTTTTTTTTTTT…TC
assay.context: aptamer strand: ATP DNA aptamer (quencher-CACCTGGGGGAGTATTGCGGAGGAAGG + anchor), 100 nM annealed; ATP concentration: 500 uM
parameter.measured: switch fluorescence ratio

[[record]]
sequence_entry = "GGCTTCTGAT"
target_desc = "ATP"
measured = 0.999

[[record]]
sequence_entry = "ACATCATAAA"
target_desc = "ATP"
measured = 0.988

[[record]]
sequence_entry = "CTAAGAATAG"
target_desc = "ATP"
measured = 1.02

[[record]]
sequence_entry = "TTTTTGCGCT"
target_desc = "ATP"
measured = 1.04

[[record]]
sequence_entry = "GAGAAAGGGT"
target_desc = "ATP"
measured = 0.988

[[record]]
sequence_entry = "GGGCAGGCTT"
target_desc = "ATP"
measured = 0.98

[[record]]
sequence_entry = "AGGCAGGGAT"
target_desc = "ATP"
measured = 1.01

[[record]]
sequence_entry = "ACTATATAAT"
target_desc = "ATP"
measured = 1.08

